system-tested: ACA-6501
procedure-text: Competitive binding peptide ACA ELISA, cardiolipin/β2-GPI-coated plates
Set-up: species or system human
experimental-setup: Optimization of Peptide 3G3; inf = no 50% inhibition
Bridge positions count the residues as written; N and C are the ends. Square brackets hold non-standard residues; d marks the D form. Peptide text beside a SMILES is read from it. NMeL = CN[C@@H](CC(C)C)C(=O)O; Phg = N[C@H](C(=O)O)c1ccccc1; Sar = CNCC(=O)O
Answer rule not met if with ACA 6501 150 ug/mL is under 100 µg/mL, and rule met if it is 100 µg/mL or more.

>>> group_label("CC(C)C[C@@H]1NC(=O)[C@H](CCCCN)NC(=O)CNC(=O)[C@H](CC(C)C)N(C)C(=O)[C@H](C(C)C)NC(=O)CNC(=O)[C@H](CC(C)C)NC(=O)[C@@H](N)CSSC[C@@H](C(=O)O)NC1=O [C L G V nL G K L C] (H-CLGV[NMeL]GKLC-OH; disulfide 1-9)")
"rule met"
>>> group_label("CC(C)C[C@@H]1NC(=O)[C@H](CCCCN)NC(=O)CNC(=O)[C@H](CC(C)C)NC(=O)[C@H](C(C)C)NC(=O)CNC(=O)[C@@H]2CCCN2C(=O)[C@@H](N)CSSC[C@@H](C(=O)O)NC1=O [C P G V L G K L C] (H-CPGVLGKLC-OH; disulfide 1-9)")
"rule met"
>>> group_label("CC(C)C[C@@H]1NC(=O)[C@H](CCCCN)NC(=O)CNC(=O)[C@H](CC(C)C)NC(=O)[C@H](C(C)C)NC(=O)CN(C)C(=O)[C@H](CC(C)C)NC(=O)[C@@H](N)CSSC[C@@H](C(=O)O)NC1=O [C L nG V L G K L C] (H-CL[Sar]VLGKLC-OH; disulfide 1-9)")
"rule not met"
>>> group_label("CC(C)C[C@@H]1NC(=O)[C@H](C(C)C)NC(=O)CNC(=O)[C@H](CC(C)C)NC(=O)[C@@H](N)CSSC[C@@H](C(=O)O)NC(=O)[C@@H]2CCCN2C(=O)[C@H](CCCCN)NC(=O)CNC1=O [C L G V L G K P C] (H-CLGVLGKPC-OH; disulfide 1-9)")
"rule met"
>>> group_label("CC(C)C[C@@H]1NC(=O)[C@H](CCCCN)NC(=O)CNC(=O)[C@H](CC(C)C)NC(=O)[C@H](C(C)C)NC(=O)[C@H](c2ccccc2)NC(=O)[C@H](CC(C)C)NC(=O)[C@@H](N)CSSC[C@@H](C(=O)O)NC1=O [C L pG V L G K L C] (H-CL[Phg]VLGKLC-OH; disulfide 1-9)")
"rule not met"
>>> group_label("CC(C)C[C@@H]1NC(=O)[C@H](CCCNC(=N)N)NC(=O)CNC(=O)[C@H](CC(C)C)NC(=O)[C@H](C(C)C)NC(=O)CNC(=O)[C@H](CC(C)C)NC(=O)[C@@H](N)CSSC[C@@H](C(=O)O)NC1=O [C L G V L G R L C] (H-CLGVLGRLC-OH; disulfide 1-9)")
"rule met"
>>> group_label("CC(C)C[C@@H]1NC(=O)[C@H](C(C)C)NC(=O)CNC(=O)[C@H](CC(C)C)NC(=O)[C@@H](N)CSSC[C@@H](C(=O)O)NC(=O)[C@@H](CC(C)C)NC(=O)[C@H](CCCCN)NC(=O)CNC1=O [C L G V L G K dL C] (H-CLGVLGK[dL]C-OH; disulfide 1-9)")
"rule met"
>>> group_label("CC(C)C[C@@H]1NC(=O)[C@H](CCCCN)NC(=O)CNC(=O)[C@H](CC(C)C)NC(=O)[C@H](C(C)C)NC(=O)CNC(=O)[C@H](C(C)C)NC(=O)[C@@H](N)CSSC[C@@H](C(=O)O)NC1=O [C V G V L G K L C] (H-CVGVLGKLC-OH; disulfide 1-9)")
"rule met"
